The measured values listed here are drawn from patent US20200017592A1.

- TESTED_SYSTEM: Macaca fascicularis IL-36R extracellular domain expressed with a C-terminal myc-myc-hexahistidine tag (Macaca fascicularis)
- PROCEDURE_DETAILS: SPR Biacore T200, mAb captured by anti-hFc, 25C, PBS-T pH 7.4
PROPERTY_NAME: 100 nM mfIL-36R-MMH Bound (RU)
Use RU as the unit, but write only the number.

Take a look at these entries with their results.
H4H14708P2 (antibody, human IgG4 S228P, kappa, V domains shown) VH: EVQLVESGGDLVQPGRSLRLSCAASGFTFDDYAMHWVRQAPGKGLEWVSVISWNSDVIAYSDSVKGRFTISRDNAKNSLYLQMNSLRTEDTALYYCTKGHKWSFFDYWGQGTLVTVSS VL: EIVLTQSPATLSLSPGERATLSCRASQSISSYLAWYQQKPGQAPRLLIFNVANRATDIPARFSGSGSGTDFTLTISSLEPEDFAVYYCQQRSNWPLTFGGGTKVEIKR :: 57
H4H14709P (antibody, human IgG4 S228P, kappa, V domains shown) VH: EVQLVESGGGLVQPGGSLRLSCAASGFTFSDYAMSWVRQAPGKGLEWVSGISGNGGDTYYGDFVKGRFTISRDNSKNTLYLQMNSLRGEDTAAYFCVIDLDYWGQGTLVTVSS VL: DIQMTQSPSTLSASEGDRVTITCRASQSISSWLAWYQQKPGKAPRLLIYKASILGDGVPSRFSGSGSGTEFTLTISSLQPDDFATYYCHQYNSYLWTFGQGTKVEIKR :: 57
H4H14700P2 (antibody, human IgG4 S228P, kappa, V domains shown) VH: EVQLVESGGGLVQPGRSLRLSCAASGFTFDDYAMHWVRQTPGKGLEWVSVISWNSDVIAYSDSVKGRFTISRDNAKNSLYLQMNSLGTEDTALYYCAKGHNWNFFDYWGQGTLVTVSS VL: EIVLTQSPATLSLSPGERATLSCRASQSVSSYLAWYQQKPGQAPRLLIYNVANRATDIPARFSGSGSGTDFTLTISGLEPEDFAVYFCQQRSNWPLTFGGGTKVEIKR :: 91

# evaluate next
// 100 nM mfIL-36R-MMH Bound (RU) value for H4H14758P (antibody, human IgG4 S228P, kappa, V domains shown) VH: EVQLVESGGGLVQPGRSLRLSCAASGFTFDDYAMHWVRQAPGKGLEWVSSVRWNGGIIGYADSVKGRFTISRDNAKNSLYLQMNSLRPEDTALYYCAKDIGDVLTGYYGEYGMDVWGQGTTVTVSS VL: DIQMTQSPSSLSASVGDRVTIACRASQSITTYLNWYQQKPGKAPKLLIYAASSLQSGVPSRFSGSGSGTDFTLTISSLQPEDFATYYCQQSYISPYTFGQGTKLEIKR : 0
